- Tested on: D283 Med
- assayDetails: cells
- Type: functional, cell-based, Homo sapiens
- reportedConditions: Homo sapiens, D283 Med
- Description: SANGER: Inhibition of human D-283MED cell growth in a cell viability assay.
pIC50: −log10 of the molar value.
assayEndpoint: pIC50

Ask: Looking for the measured pIC50 of O=C(c1cc(Cc2n[nH]c(=O)c3ccccc23)ccc1F)N1CCN(C(=O)C2CC2)CC1 , can you help?
Result: < 5.30

Ask: Looking for the measured pIC50 of COc1ccc(-c2ccc3c(N4CCOC[C@@H]4C)nc(N4CCOC[C@@H]4C)nc3n2)cc1CO , can you help?
Result: 6.83

Ask: Looking for the measured pIC50 of CCc1nc(N)nc(N)c1-c1ccc(Cl)cc1 , can you help?
Result: < 4.70

Ask: Looking for the measured pIC50 of Nc1ccn([C@@H]2O[C@H](CO)[C@@H](O)[C@@H]2O)c(=O)n1 , can you help?
Result: 6.44

Ask: Looking for the measured pIC50 of O=C(/C=C/c1ccccc1)NC(NC(=S)Nc1cccc2cccnc12)C(Cl)(Cl)Cl (centres undefined) , can you help?
Result: < 4.80

Ask: Looking for the measured pIC50 of COc1cc([C@@H]2c3cc4c(cc3[C@@H](O[C@@H]3O[C@@H]5CO[C@@H](C)O[C@H]5[C@H](O)[C@H]3O)[C@H]3COC(=O)[C@H]23)OCO4)cc(OC)c1O [ETOPOSIDE] , can you help?
Result: 5.66

Ask: Looking for the measured pIC50 of O=C(NOCC1CC1)c1ccc(F)c(F)c1Nc1ccc(I)cc1Cl , can you help?
Result: < 5.00

Ask: Looking for the measured pIC50 of O=C1N=C(NCc2cccs2)S/C1=C\c1ccc2ncccc2c1 , can you help?
Result: < 5.30

Ask: Looking for the measured pIC50 of COc1cc(F)c(F)c(Nc2ccc(I)cc2F)c1NS(=O)(=O)C1(CC(O)CO)CC1 (centres undefined) , can you help?
Result: < 5.30
